- EXPERIMENT DESCRIPTION: HUVEC growth inhibition – cell-based, human, primary screen (AID 575);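 further: 100% = median of untreated cell wells with 0.1% DMSO on each plate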
- STUDY CONDITIONS: HUVEC proliferation, CellTiter-Glo luminescence, 72 h; at 10 µM; stronger effect = lower value
OBSERVATION TYPE: viability (%)
The reply should contain only the number, in %.

Would you mind telling me what viability value was observed for `Cc1cccc(N2CCN(C(=O)c3cc4ccccc4oc3=O)CC2)c1C` ?
98.6

Please report the recorded viability for `O=C(COc1ccc(F)cc1)Nc1ccc(-n2cnnn2)cc1` .
107

What does the record list as viability for `Cc1c(C(=O)NC2CC2)oc2ccc(S(=O)(=O)N3CCCCCC3)cc12` ?
96.8

Endpoint output: viability of `CNC(=O)c1ccsc1NC(=O)c1ccccc1` . Value?
83.8

Looking for the measured viability of `CCOc1ccc(Cn2nnc(C(=O)Nc3ccc(OC)cc3OC)c2N)cc1` , can you help?
67.5

Can you share its viability? I mean this compound: `COc1ccc(OC)c2[nH]c(=O)c(CCNC(=O)C(C)C)cc12`
83.2

Data request, read-out viability, for `Cc1cc(C)cc(N(CC(=O)Nc2cccc(C)n2)S(=O)(=O)c2c(C)noc2C)c1`
92.3

For the compound `Cc1cccc(NC(=O)Nc2cccc(C#N)c2)n1` , what viability is on record?
63.2

Need viability, item `CCCCc1nc2ccccc2n2cc3c(=O)n(C)c(=O)n(C)c3c12`
106

Reported viability for COc1cccc(C2C(C(N)=O)=C(C)Nc3nc(CCCO)nn32)c1OC (stereo unspecified) : what is it?
93.8

Consider the compound `CCN1CCN(c2ncnc3c2cnn3-c2ccc(C)cc2C)CC1` and give its measured viability.
99.8

---

- EXPERIMENT DESCRIPTION: doxorubicin toxicity protection in MRP-1 cells – H69AR cells, CellTiter-Glo, duplicate, MRP-1 activator project, pilot screen (AID 807);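 further: compound pretreatment 18-22 h then 72 h combined with doxorubicin; 0% = doxorubicin alone and 100% = vehicle without doxorubicin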
- STUDY CONDITIONS: H69AR viability with doxorubicin, CellTiter-Glo luminescence; at 10 µM; stronger effect = higher value
The source made the active and inactive calls.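 Rule for the calls: active = viability increase at or above a cutoff of the median across tested compounds plus 3 SD (cut at about 8.5% in these data, passing the limit was not always enough); inconclusive = some gains above the cutoff, reason not given; inactive = the rest.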
OBSERVATION TYPE: viability increase

Request the reported viability increase associated with `COc1ccc(-c2nc(C(N)=O)c3[nH]c(=O)n(-c4ccccc4OC)c3n2)c(OC)c1`
-4.59% (inactive)

Give the measured viability increase of `COc1ccc(N(CC(=O)Nc2ccc3c(c2)OCO3)S(=O)(=O)c2ccccc2)c(OC)c1` .
-2.07% (inactive)

GET /values?readout=viability increase&item= `Clc1ccc(Nc2ncnc3c2cnn3-c2ccccc2)cc1`
-2.81% (inactive)

Would you mind telling me what viability increase value was observed for `CCCCn1c2c(c3ccccc31)CCc1nonc1-2` ?
1.75% (inactive)

Can you share its viability increase? I mean this molecule: `Oc1ccccc1-c1nnc(COc2ccc(Cl)cc2Cl)o1`
-1.77% (inactive)

Dear colleague, I am looking for the recorded viability increase of the following molecule: COc1cccc(C2NC(=O)NC(C)=C2C(=O)Nc2ccc(C)cc2)c1 (centres undefined)
1.54% (inactive)

Which viability increase value is on record for `CCOc1ccc(-n2c(SCC(N)=O)nc3c([nH]c4ccccc43)c2=O)cc1` ?
-2.27% (inactive)

Please report the recorded viability increase for CCc1ccccc1N1CC23C=CC(O2)C(C(=O)O)C3C1=O (centres undefined) .
1.1% (inactive)

Please report the recorded viability increase for `Cc1ccc(OCc2nc(-c3ccccn3)no2)c(Br)c1` .
1.13% (inactive)

Form field: reported viability increase of `CCOC(=O)C1CCN(Cc2ccc(OC)c(C)c2OC)CC1`
-4.57% (inactive)

Reported viability increase, molecule COCCOC(=O)c1[nH]c2c(c1C)C(=O)CC(c1cc(OC)ccc1OC)C2 (centres undefined) : ____
-6.01% (inactive)

I am curious: what viability increase value has been reported for CCOC(=O)C1=C(N)OC2=C(C(=O)CCC2)C1c1cccs1 (centres undefined) ?
0.3% (inactive)

Returns the measured viability increase for the input molecule. Input: `Cc1cc(C)c(C(=O)Nc2ccc(S(=O)(=O)Nc3onc(C)c3C)cc2)c(C)c1`
2.97% (inactive)

viability increase for `CCOC(=O)c1sc2nc(NC(=O)C(C)(C)C)sc2c1C` ?
-4.43% (inactive)

Which viability increase reading was recorded for the molecule `CC(=O)Oc1ccc(C(=O)Nc2nnc(C)s2)cc1` ?
-2.2% (inactive)

Look at this molecule and give its reported viability increase. `c1ccc(-c2cn3cccnc3n2)cc1`
0.59% (inactive)

Which viability increase reading was recorded for the molecule `CCn1c(NC(=O)c2cccc(Cn3cc(Cl)cn3)c2)nc2ccccc21` ?
-0.12% (inactive)

Query: viability increase; subject: CCOc1ccc(N(CC(=O)NC2CCCC(C)C2C)S(=O)(=O)c2c(C)noc2C)cc1 (centres undefined)
-1.09% (inactive)

# query: viability increase of entry `COc1ccc(C(=O)Oc2c(CN3CCOCC3)cc(Cl)c3cccnc23)cc1OC`
-8.29% (inactive)

Quick one: viability increase for `CCN(CC)C(=O)c1ccc(CS(=O)(=O)c2ccc(OC)cc2)o1` ?
-1.02% (inactive)

Endpoint output: viability increase of `Cn1c(=O)cc(NCCc2ccccc2)[nH]c1=O` . Value?
-5.4% (inactive)

Returns the measured viability increase for the input molecule. Input: `Cc1cc(C)nc(SCc2ccccc2C#N)n1`
-0.49% (inactive)

Please give the measured viability increase for this molecule: CCOC(=O)N1CCC(N2C(=O)c3ccccc3C2Nc2ccccc2C)CC1 (centres undefined)
-4.35% (inactive)

For `CCCCN(C)C(=O)c1ccc(CS(=O)(=O)c2ccccc2C)o1` , what is its reported viability increase?
-1.67% (inactive)

So what's the measured viability increase for this one? COc1ccc(C)cc1NC(=O)C1CCCN(S(=O)(=O)c2c(C)noc2/C=C/N(C)C)C1 (centres undefined)
-0.74% (inactive)

Request the reported viability increase associated with CC(C)CCOc1cccc(C2c3c(oc4ccccc4c3=O)C(=O)N2CCCN2CCOCC2)c1 (centres undefined)
-4.89% (inactive)

Need viability increase of `O=C(CSc1nnc(Cn2c(=O)sc3ccccc32)n1-c1ccccc1)N1CCCC1` , thanks.
-1.4% (inactive)

I'd like to know its viability increase. The molecule in question is `Cc1ccc(NC(=O)c2cc(-c3ccc(C)o3)nc3ccccc23)nc1`
-4.08% (inactive)

What value of viability increase has been recorded for this entry: CCC(C)C1C(C#N)=C(N)OC2=C1C(=O)CC(C)(C)C2 (centres undefined)
-3.48% (inactive)

Dear colleague, I am looking for the recorded viability increase of the following molecule: `COCCNC(=O)CN(C)S(=O)(=O)c1ccc(Br)cc1`
-2.09% (inactive)

Any idea what viability increase was measured for `Cc1ccccc1Cn1nc(C)c(NC(=O)c2noc3c2CCc2ccccc2-3)c1C` ?
10.6% (active)

Item CC1CCCCN1CCNC(=O)C1CCN(S(=O)(=O)c2cccc3cccnc23)CC1 (centres undefined) has what recorded viability increase?
-3.57% (inactive)

// lookup viability increase for `N#CCn1nnc(-c2ccc3c(c2)OCO3)n1`
3.41% (inactive)

Returns the measured viability increase for the input molecule. Input: CCN(CC)CCN1C(=O)c2oc3ccc(F)cc3c(=O)c2C1c1ccncc1 (centres undefined)
0.69% (inactive)

Endpoint output: viability increase of Cn1c(=O)c2cc(S(=O)(=O)NC(C(=O)Nc3cccnc3)c3ccccc3)ccc2n(C)c1=O (centres undefined) . Value?
-2.15% (inactive)

Could you share which viability increase value was measured for `O=c1oc2ccccc2cc1NCc1ccccc1O` ?
-6.51% (inactive)

Look at this molecule and give its reported viability increase. CC1CCc2nn(CC(=O)NCCCN3CCOCC3)cc2C1 (centres undefined)
-1.14% (inactive)

What value of viability increase has been recorded for this entry: `CN(CCCNC(=O)c1cn(C)c2ccc(S(=O)(=O)N(C)C)cc2c1=O)c1ccccc1`
-3.8% (inactive)

Could you tell me which viability increase is on file for O=C(OCCN=C1NS(=O)(=O)c2ccccc21)C1CC(=O)N(c2ccc(Cl)cc2)C1 (centres undefined) ?
-0.51% (inactive)

Find the recorded viability increase belonging to `CCOC(=O)c1c(C)n(C)c2c(C)cc(O)c(OC(C)=O)c12` and report it.
-5.24% (inactive)

Give the measured viability increase of `COc1ccc(-c2cnc(SCC(=O)Nc3ccc4c(c3)OCO4)n2Cc2ccco2)cc1` .
-3.05% (inactive)

What measured viability increase goes with `Cc1cccc(-n2ncc3c(NCCCn4ccnc4)ncnc32)c1` ?
-0.65% (inactive)

# get_value(readout='viability increase', item= `Cc1ccc(C)c(NC(=O)CSc2nnc(-c3ccccc3)o2)c1` )
1.83% (inactive)

Can you look up the measured viability increase of `O=C(NCc1ccco1)C1CCN(c2ccc(N3CCOCC3)nn2)CC1` for me?
-3.71% (inactive)

---

- EXPERIMENT DESCRIPTION: S. cerevisiae growth inhibition in permissive medium (OD615), pilot counter-assay for S. cerevisiae lifespan shortening project, permissive growth control (AID 705)
- STUDY CONDITIONS: OD615, 24 h, at 10 µM, stronger effect = higher value
Active and inactive are the calls of the source.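 The calls were made as follows: active = growth inhibition above 25% in both replicates, a cutoff set 3 SD above the mean; inconclusive = above 25% in only one replicate; inactive = the rest.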
OBSERVATION TYPE: growth inhibition

I am curious: what growth inhibition value has been reported for `C=C(Cl)COc1ccc2c(C)cc(=O)oc2c1` ?
-6.04% (inactive)

Value lookup for growth inhibition; key = CC1CN(Cc2nc3c(c(=O)n(C)c(=O)n3C)n2Cc2ccccc2)CC(C)O1 (stereo not drawn)
-2.62% (inactive)

# lookup: growth inhibition of `Cc1c(N=C/C=C/c2ccccc2)cnn1C`
-8.46% (inactive)

Query: growth inhibition; subject: CCOC(=O)C(C(=O)OCC)C(C)C#CCN1CCCCC1 (stereo not drawn)
-2.21% (inactive)

Sample `N#Cc1ccc(-c2csc(NC(=O)C3CC3)n2)cc1` — what was its growth inhibition?
-18.1% (inactive)

I would be grateful if you could share the reported growth inhibition for `COC(=O)Cn1c(CN2CCOCC2)nc2c1c(=O)n(C)c(=O)n2C` .
-0.42% (inactive)

Bench note: what growth inhibition did `Cn1c(SCC(=O)Nc2ccc(F)cc2)nnc1-c1cccnc1` show?
-8.06% (inactive)

Quick one: growth inhibition of CCC(C)NC(=O)C(NS(=O)(=O)c1ccc2c(c1)c(=O)n(C)c(=O)n2C)c1ccccc1 (stereo not drawn) ?
-5.69% (inactive)

Dear colleague, I am looking for the recorded growth inhibition of the following compound: NS(=O)(=O)c1ccc(CCNC2CC(=O)N(CCc3ccccc3)C2=O)cc1 (stereo not drawn)
-14.1% (inactive)

Entry under review: O=C(Nc1ccc2c(c1)OCO2)C1COc2ccccc2O1 (stereo not drawn) . Reported growth inhibition?
-13.5% (inactive)

Item Cc1cc(NC(=O)CSc2nc3c(c(=O)n2Cc2ccccc2)SC(C)C3)no1 (stereo not drawn) has what recorded growth inhibition?
-2.67% (inactive)

Any idea what its growth inhibition is? The compound is CCn1cc(C(=O)NCC2CCCO2)c2cc(OC)c(OC)cc2c1=O (stereo not drawn)
-8.12% (inactive)

Return reported growth inhibition; argument: `O=C(Nc1ccccc1)N1CCN(Cc2ccc3c(c2)OCO3)CC1`
5.22% (inactive)

Look up growth inhibition: `CN(CCC#N)C(=O)Cn1nc(Cc2ccncc2)c2ccccc2c1=O`
-2.53% (inactive)

Request the reported growth inhibition associated with O=C(Nc1nc(-c2ccco2)c(-c2ccco2)s1)C1CC(=O)N(c2ccc3c(c2)OCCO3)C1 (stereo not drawn)
-14.8% (inactive)

Need growth inhibition, item `COCCCNC(=O)CSc1ccc(Cl)cc1`
1.36% (inactive)

Fill in: growth inhibition of `COc1ccc(C)cc1NS(=O)(=O)c1cccc2nonc12` is ___
-8.6% (inactive)

// query growth inhibition value for entry `CCOC(=O)C1CCN(Cc2ccc(OC)c(C)c2OC)CC1`
-2.98% (inactive)

Consider the compound shown here: `COc1cccc(NC(=O)Cn2cc3c(n2)CCCCC3)c1` What is its recorded growth inhibition?
-10% (inactive)

What measured growth inhibition goes with `CC(=O)N1CCc2c(sc(NC(=O)c3ccc(S(=O)(=O)N(C)C)cc3)c2C#N)C1` ?
-4.59% (inactive)

Fill blank: measured growth inhibition of the compound `Cc1nnc2n(-c3ccc(Cl)cc3)c(=O)c3c4c(sc3n12)CN(C)CC4` is ____.
-4.76% (inactive)

// growth inhibition lookup, key: `COC(=O)CCC(=O)Nc1ccc(Br)cc1`
8.2% (inactive)

Tell me the measured growth inhibition of `CCCn1cc(SCC(=O)Nc2nnc(C)s2)c2ccccc21` , please.
3.3% (inactive)
